The measured values listed here are drawn from the Human Domainome abundance scans (Beltran et al. 2025).

B1: RNA-binding E3 ubiquitin-protein ligase MEX3C, residues 325 to 391; numbered along this chain, Q5U5Q3 (parent)
chain: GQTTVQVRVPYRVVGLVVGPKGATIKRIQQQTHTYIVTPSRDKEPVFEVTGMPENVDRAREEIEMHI

variants of: B1; assay: abundance fitness (aPCA) (normalised: wild type 0, dead -1); higher = more abundant; growth selection in yeast, the domain comes from the species named; conditions: Homo sapiens
measuredQuantity: abundance fitness

variantlabel=K21C endpointvalue=-0.247
variantlabel=T34L endpointvalue=-0.689
variantlabel=N55D endpointvalue=0.033
variantlabel=K43C endpointvalue=-0.1
variantlabel=Q31D endpointvalue=-0.001
variantlabel=T38D endpointvalue=-0.275
variantlabel=Q31F endpointvalue=-0.452
variantlabel=V37Y endpointvalue=-0.629
variantlabel=T24M endpointvalue=-0.786
variantlabel=T50M endpointvalue=-0.378
variantlabel=G22P endpointvalue=-0.836
variantlabel=Q31L endpointvalue=-0.128
variantlabel=G22M endpointvalue=-0.274
variantlabel=P45D endpointvalue=-0.677
variantlabel=T24Q endpointvalue=-0.818
variantlabel=P20W endpointvalue=-0.625
variantlabel=Y35W endpointvalue=-0.135
variantlabel=F47E endpointvalue=-0.658
variantlabel=I28E endpointvalue=-0.952
variantlabel=H33K endpointvalue=0.016
variantlabel=D42I endpointvalue=-0.342
variantlabel=E54H endpointvalue=-0.332
variantlabel=K21P endpointvalue=-0.884
variantlabel=K43L endpointvalue=-0.579
variantlabel=T24W endpointvalue=-0.553
variantlabel=G19P endpointvalue=-0.824
variantlabel=M52C endpointvalue=-0.194
variantlabel=S40K endpointvalue=-0.072
variantlabel=P45H endpointvalue=-0.502
variantlabel=T38F endpointvalue=-0.516
variantlabel=V37M endpointvalue=-0.095
variantlabel=P53R endpointvalue=-0.167
variantlabel=D42W endpointvalue=-0.335
variantlabel=T38V endpointvalue=-0.174
variantlabel=P53A endpointvalue=-0.141
variantlabel=V46F endpointvalue=-0.503
variantlabel=R27E endpointvalue=-0.512
variantlabel=I25Y endpointvalue=-0.502
variantlabel=Q30H endpointvalue=-0.23
variantlabel=Y35C endpointvalue=-0.132
variantlabel=Q29K endpointvalue=-0.81
